In this section, each of the molecules is paired with its reported TGI.
- Tested on: EKVX NSCLC
- ASSAY_NOTES: NCI tumour cell line growth inhibition, 48 h

Some molecules with recorded TGI:
Exercise: Value lookup for TGI; key = `CSc1ccc(C(=O)/C=C/c2ccccc2Cl)cc1`
Solution: 37 µM

Exercise: Fill blank: measured TGI of the molecule `Cc1nnc(Sc2nc(C#N)c(C#N)nc2Sc2nnc(C)s2)s1` is ____.
Solution: > 73.6 µM

Exercise: Which TGI value is on record for `COc1ccc(N(C)c2nc(Cl)nc3cnn(C)c23)cc1` ?
Solution: > 100 µM

Exercise: Which TGI value belongs to `CCc1cccc(C)c1NC(=S)NC(=O)c1ccccc1C(=O)NC(=S)Nc1c(C)cccc1CC` ?
Solution: > 100 µM

Exercise: Quick check: TGI of `CN(C)CCNC(=O)NC[C@H]1CC[C@@H]2[C@H](O1)c1cc(C(F)(F)F)ccc1N[C@H]2c1ccccc1` ?
Solution: > 100 µM

Exercise: Dear colleague, I am looking for the recorded TGI of the following molecule: CCOC(=O)C(C(O)c1ccc([N+](=O)[O-])cc1)P(=O)(OCC)OCC (configuration not stated)
Solution: > 100 µM

Exercise: Request the reported TGI associated with `CC1(C)N=C(N)N=C(N)N1c1cccc(Br)c1`
Solution: > 100 µM

Exercise: Suppose we examine the molecule `CCOC(=O)C1(Br)S(=O)(=O)OCCOS1(=O)=O` ; what TGI value has been reported?
Solution: > 100 µM

Further cases:
Exercise: Consider the molecule Cc1ccc(S(=O)(=O)N2CCc3ccc(O)c4c3C2Cc2ccc3c(c2-4)OCO3)cc1 (configuration not stated) and give its measured TGI.
Solution: > 100 µM

Exercise: Param item = `Fc1ccc(Nc2nc3ccccc3c3occc23)cc1` ; retrieve measured TGI.
Solution: 29.5 µM

Exercise: # lookup: TGI of `COc1ccc(OC)c2c3c([nH]c12)C(=O)Nc1nc(N)nc(N)c1C3`
Solution: > 100 µM

Exercise: Given the molecule `Nc1ccc(Sc2c3ccccc3nc3ccccc23)cc1` , what is its reported TGI?
Solution: 58.9 µM

Exercise: TGI for O=C1C2C3C=CC(C2C(=O)N1CN1CCSCC1)C1C2C(=O)N(CN4CCSCC4)C(=O)C2C31 (configuration not stated) ?
Solution: > 100 µM
